ASSAY_METHOD_TEXT: APR_HepG2_MitoMembPot_24hr: Apredica 24-hour HepG2 Assay for Mitochondrial Membrane Potential (AID 2282911)
CONDITION_PARAMETERS: imaging, actives raise or lower the signal
Calls of active or inactive are those of the source. Rule for the calls: active = hit-call score of the fitted dose curve at least 0.9, where 1 is the maximum; inactive = score below 0.9.
Classes used: active, inactive

MOLECULE	ASSIGNED_CLASS
O=C(O)c1cc(Oc2ccc(C(F)(F)F)cc2Cl)ccc1[N+](=O)[O-]	inactive
CC(C)N(C(=O)SCC(Cl)=C(Cl)Cl)C(C)C	inactive
CCCCN(CC)c1c([N+](=O)[O-])cc(C(F)(F)F)cc1[N+](=O)[O-]	active
CNC(=O)ON=C(C)SC	inactive
CCc1cnc(C2=NC(C)(C(C)C)C(=O)N2)c(C(=O)O)c1 (configuration not stated)	inactive
Nc1c(Cl)cc([N+](=O)[O-])cc1Cl	inactive
Cc1ccn2nc(S(=O)(=O)Nc3c(F)cccc3F)nc2n1	inactive
C[N+]1(C)CCCCC1	inactive
CNc1cnn(-c2cccc(C(F)(F)F)c2)c(=O)c1Cl	inactive
COP(=O)(OC)OC(Br)C(Cl)(Cl)Br (configuration not stated)	inactive
CN(C)NC(=O)CCC(=O)O	inactive
CCCOc1nn(C(=O)NS(=O)(=O)c2ccccc2C(=O)OC)c(=O)n1C	inactive

###

ASSAY_METHOD_TEXT: CCTE_Shafer_MEA_dev_per_burst_interspike_interval: CCTE's Neural Network Formation Assay for Burst Interspike Interval, Shafer Lab (AID 2284044);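 note: mean spike spacing inside bursts as AUC over recordings on days 5 7 9 12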;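 for AC50: potency for a decrease of within-burst interspike interval below DMSO level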
Activity calls are given as the source filed them. Rule for the calls: active = hit-call score of the fitted dose curve at least 0.9, where 1 is the maximum; inactive = score below 0.9.

MOLECULE	AC50
CCOP(=O)(NC(C)C)Oc1ccc(SC)c(C)c1 (centres undefined)	inactive
COP(=O)(NC(C)=O)SC (centres undefined)	inactive
CC(Oc1cccc(Cl)c1)C(=O)O (centres undefined)	inactive
CC(C)[C@H](C(=O)O[C@H](C#N)c1cccc(Oc2ccccc2)c1)c1ccc(Cl)cc1	17.6 µM (active)

###

Read-out: Insulin Like Growth Factor 1 (IGF1), IGF1 (gene 3479)
ASSAY_METHOD_TEXT: LTEA_HepaRG_IGF1: Life Technologies and Expression Analysis (LTEA) Assay for Insulin Like Growth Factor 1 (IGF1) using HepaRG (AID 2283506)
CONDITION_PARAMETERS: mRNA level, 48 h; actives raise or lower the signal
Activity calls are given as the source filed them. How the source made its calls: active means hit-call score of the fitted dose curve at least 0.9, where 1 is the maximum; inactive means score below 0.9.

COMPOUND	AC50
CCOP(=O)(OCC)Oc1cc(C)nc(C(C)C)n1	inactive
CC[C@H](C)[C@H]1O[C@]2(C=C[C@@H]1C)C[C@@H]1C[C@@H](C/C=C(\C)[C@@H](O[C@H]3C[C@H](OC)[C@@H](O[C@H]4C[C@H](OC)[C@@H](NC)[C@H](C)O4)[C@H](C)O3)[C@@H](C)/C=C/C=C3\CO[C@@H]4[C@H](O)C(C)=C[C@@H](C(=O)O1)[C@]34O)O2	27.7 µM (active)
CN1COCN(Cc2cnc(Cl)s2)C1=N[N+](=O)[O-]	inactive
COP(=O)(OC)OC(Br)C(Cl)(Cl)Br (configuration not stated)	inactive
S=C1NCCN1	inactive
N#CSCSC#N	inactive
CCc1cccc(C)c1N(C(=O)CCl)C(C)COC (configuration not stated)	50 µM (active)
CCCCOC(=O)c1ccccc1C(=O)O	inactive
O=c1ccc(=O)[nH][nH]1	inactive
CCCSP(=O)(OCC)Oc1ccc(Br)cc1Cl (configuration not stated)	inactive
C#CC(C)(C)NC(=O)c1cc(Cl)cc(Cl)c1	14.8 µM (active)
CCOC(=O)CC(SP(=O)(OC)OC)C(=O)OCC (configuration not stated)	inactive
CCCOCC(=Nc1ccc(Cl)cc1C(F)(F)F)n1ccnc1	12.1 µM (active)
CCNc1nc(Cl)nc(NC(C)(C)C#N)n1	inactive
CSc1nc(NC(C)C)nc(NC(C)C)n1	20.7 µM (active)
CSC1=N[C@@](C)(c2ccccc2)C(=O)N1Nc1ccccc1	27.6 µM (active)
C#CCC1=C(C)C(OC(=O)C2C(C=C(C)C)C2(C)C)CC1=O (configuration not stated)	71 µM (active)
CN(C)C(=O)Nc1cccc(C(F)(F)F)c1	inactive
COP(=O)(NC(C)=O)SC (configuration not stated)	inactive
Nc1nc(N)nc(NC2CC2)n1	inactive
CN(C)[C@@H]1C(=O)C(C(N)=O)=C(O)[C@@]2(O)C(=O)C3=C(O)c4c(O)cccc4[C@@](C)(O)[C@H]3[C@H](O)[C@@H]12	inactive
CCOP(=S)(OCC)Oc1ccc([N+](=O)[O-])cc1	inactive
CCCOc1nn(C(=O)NS(=O)(=O)c2ccccc2C(=O)OC)c(=O)n1C	inactive
C=C(C)[C@H]1Cc2c(ccc3c2O[C@@H]2COc4cc(OC)c(OC)cc4[C@@H]2C3=O)O1	1.03 µM (active)
CSc1nnc(C(C)(C)C)c(=O)n1N	inactive
COP(=O)(OC)SCn1c(=O)oc2cc(Cl)cnc21	inactive
CNC(=O)ON=C(C)SC	inactive
CCC(CC)Nc1c([N+](=O)[O-])cc(C)c(C)c1[N+](=O)[O-]	61.1 µM (active)
CNc1cnn(-c2cccc(C(F)(F)F)c2)c(=O)c1Cl	36.9 µM (active)
CCC(=NOC/C=C/Cl)C1=C(O)CC(C2CCOCC2)CC1=O (configuration not stated)	inactive
CCOP(=S)(OCC)OC(Cl)C(Cl)(Cl)Cl (configuration not stated)	inactive
CN(C)NC(=O)CCC(=O)O	inactive

###

ASSAY_METHOD_TEXT: IUF_NPC2a_radial_glia_migration_72hr: Leibniz Research Institute for Environmental Medicine (IUF) 72-hour Neural Progenitor Cell Migration Assay for Radial Glia Migration (NPC2a) (AID 2284299)
Active and inactive are the calls of the source. Rule for the calls: active = hit-call score of the fitted dose curve at least 0.9, where 1 is the maximum; inactive = score below 0.9.
Classes used: T (active), F (inactive)

COMPOUND	ASSIGNED_CLASS
C[N+]1(C)CCCCC1	F
CCOP(=S)(Oc1cnc(C(C)(C)C)nc1)OC(C)C (stereo not drawn)	F
CCCCSP(=O)(SCCCC)SCCCC	F
COP(=O)(OC)OC(Br)C(Cl)(Cl)Br (stereo not drawn)	T
CCOP(=S)(OCC)Oc1cc(C)nc(C(C)C)n1	F
CCOP(=S)(OCC)OC(Cl)C(Cl)(Cl)Cl (stereo not drawn)	F
CCOP(=O)(OCC)Oc1cc(C)nc(C(C)C)n1	F
S=C1NCCN1	F
CSC1=N[C@@](C)(c2ccccc2)C(=O)N1Nc1ccccc1	F
CCOP(=S)(OCC)SCCSCC	F
CC(=NC#N)N(C)Cc1ccc(Cl)nc1	F
CCOP(=O)(NC(C)C)Oc1ccc(SC)c(C)c1 (stereo not drawn)	F
CN1COCN(Cc2cnc(Cl)s2)C1=N[N+](=O)[O-]	F
CON=C(C(=O)OC)c1ccccc1CON=C(C)c1cccc(C(F)(F)F)c1	F
CN(C)[C@@H]1C(=O)C(C(N)=O)=C(O)[C@@]2(O)C(=O)C3=C(O)c4c(O)cccc4[C@@](C)(O)[C@H]3[C@H](O)[C@@H]12	T
O=[N+]([O-])c1cc(C(F)(F)F)c(Cl)c([N+](=O)[O-])c1Nc1ncc(C(F)(F)F)cc1Cl	T
COP(=O)(NC(C)=O)SC (stereo not drawn)	F
COP(=O)(OC)C(O)C(Cl)(Cl)Cl (stereo not drawn)	F

###

ASSAY_METHOD_TEXT: CCTE_Shafer_MEA_acute_per_network_burst_spike_number_std: CCTE's Neural Acute Assay for Standard Deviation of Number of Spikes in a Network Burst, Shafer Lab (AID 2284020);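 note: fitted for decrease in spike-number SD versus DMSO so actives lower it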
Calls of active or inactive are those of the source. Rule for the calls: active = hit-call score of the fitted dose curve at least 0.9, where 1 is the maximum; inactive = score below 0.9.
Classes used: y for active, n for inactive

MOLECULE	ASSIGNED_CLASS
CN(C)NC(=O)CCC(=O)O	n
N#CSCSC#N	n
CON=C(C(=O)OC)c1ccccc1CON=C(C)c1cccc(C(F)(F)F)c1	y
CC1=NNC(=O)N(/N=C/c2cccnc2)C1	n
CC(=NC#N)N(C)Cc1ccc(Cl)nc1	n
CCOC(=O)CC(SP(=O)(OC)OC)C(=O)OCC (stereo not drawn)	n
Cc1ccn2nc(S(=O)(=O)Nc3c(F)cccc3F)nc2n1	n
CCOP(=S)(OCC)SCCSCC	n
CCc1cccc(C)c1N(C(=O)CCl)C(C)COC (stereo not drawn)	y
CCOP(=O)(NC(C)C)Oc1ccc(SC)c(C)c1 (stereo not drawn)	n
FC(F)C(F)(F)OCC(Cn1cncn1)c1ccc(Cl)cc1Cl (stereo not drawn)	n
CC(C)[C@H](C(=O)O[C@H](C#N)c1cccc(Oc2ccccc2)c1)c1ccc(Cl)cc1	n
CCc1cnc(C2=NC(C)(C(C)C)C(=O)N2)c(C(=O)O)c1 (stereo not drawn)	n
O=[N+]([O-])c1cc(C(F)(F)F)c(Cl)c([N+](=O)[O-])c1Nc1ncc(C(F)(F)F)cc1Cl	y
Nc1c(Cl)cc([N+](=O)[O-])cc1Cl	y
CCOP(=S)(Oc1cnc(C(C)(C)C)nc1)OC(C)C (stereo not drawn)	y
CC(COc1ccc(Oc2ccccc2)cc1)Oc1ccccn1 (stereo not drawn)	y
CN(C)[C@@H]1C(=O)C(C(N)=O)=C(O)[C@@]2(O)C(=O)C3=C(O)c4c(O)cccc4[C@@](C)(O)[C@H]3[C@H](O)[C@@H]12	n
C[Si](Cn1cncn1)(c1ccc(F)cc1)c1ccc(F)cc1	n
C=C(C)[C@H]1Cc2c(ccc3c2O[C@@H]2COc4cc(OC)c(OC)cc4[C@@H]2C3=O)O1	n
COP(=O)(OC)C(O)C(Cl)(Cl)Cl (stereo not drawn)	n
CCOP(=S)(OCC)Oc1ccc2c(C)c(Cl)c(=O)oc2c1	y
C#CCC1=C(C)C(OC(=O)C2C(C=C(C)C)C2(C)C)CC1=O (stereo not drawn)	y
